METHOD DESCRIPTION: chemical genetic growth profiling, strain panel (AID 1159580);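 also: tested at 20 µM; growth read once vehicle control cultures reached saturation at 30 °C; 1 = growth at the plate median or of vehicle wells; lower values mean less growth of the strain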
CONDITIONS USED: S. cerevisiae deletion strains, growth OD, locus YDL101C, strain DUN1
Out of some 5,500 compounds screened, about 2,000 (36%) were called active. Roughly 18% stayed inconclusive and do not appear here. Rule as the data show it: active = normalized growth mostly below about 0.91 (no sharp cut-off); inconclusive = no clear call, values can overlap the other calls; inactive = mostly above about 0.92. The list shows a part of the results.
In this exercise, the only acceptable responses are yes (1) (active), no (0) (inactive)

Problem: Recorded test outcome, item CCOC(=O)N/N=C\c1ccccc1OCC
Result: no (0)

Problem: Lab log entry: O=c1c(O)c(-c2ccc(O)cc2O)oc2cc(O)cc(O)c12 — outcome as called in the assay?
Result: no (0)

Problem: Dear all, I need the recorded test outcome for COc1ccc2c3c1OC1C(O)CC=C4C(C2)N(C)CCC431 (configuration not stated) , thank you.
Result: no (0)

###

Quick list: normalized growth per entry.
METHOD DESCRIPTION: chemical genetic growth profiling, strain panel (AID 1159580)
CONDITIONS USED: S. cerevisiae deletion strains, growth OD, locus YAL040C, strain CLN3, stronger effect = lower value
About 2,000 (36%) of roughly 5,500 compounds were called active. Inconclusive results (about 18%) are left out. Some of the results follow.
Reply with just the number.

Some entries whose results are on file:
- COMPOUND: "O=S(=O)(c1cccc2c(Cl)cccc12)N1CCCNCC1"
  normalized growth: 0.99
- COMPOUND: "N[C@@H](COP(=O)(O)O)C(=O)O"
  normalized growth: 0.991

Noted for OC[C@H]1O[C@@H](n2cnc3c(N[C@H]4CC5CCC4C5)ncnc32)[C@H](O)[C@@H]1O (stereo not given in full) : its normalized growth reads 1.02

Quick note, normalized growth for N#C/C(=C/c1ccc(O)c(O)c1)C(N)=S landed at 0.973

GET /value?item= CCCC1O[C@@H]2C[C@H]3[C@@H]4CCC5=CC(=O)C=C[C@]5(C)[C@H]4[C@@H](O)C[C@]3(C)[C@]2(C(=O)CO)O1 (stereo not given in full) &field=normalized growth returns 1.06

###

Overview of reported normalized growth across a group of molecules:
METHOD DESCRIPTION: chemical genetic growth profiling, strain panel (AID 1159580);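 also: tested at 20 µM; growth read once vehicle control cultures reached saturation at 30 °C; 1 = growth at the plate median or of vehicle wells; lower values mean less growth of the strain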
CONDITIONS USED: S. cerevisiae deletion strains, growth OD, locus YNL322C, strain KRE1, stronger effect = lower value
Screen size: about 5,500 compounds; about 2,000 (36%) were called active. Roughly 18% stayed inconclusive and do not appear here. Some of the results follow.
Output: the number by itself.

- MOLECULE: "COc1ccccc1Oc1ccc(C(F)(F)F)cc1NC(=O)NC(=O)c1ccccc1F"
  normalized growth: 0.995

GET /value?item= CCCC(C)(COC(N)=O)COC(=O)NC(C)C (stereo unspecified) &field=normalized growth returns 0.995

Briefly, normalized growth measured for O=C1c2ccccc2C(=O)N1CNc1ccc(N2CCOCC2)cc1 : 0.977

The molecule listed as O=[N+]([O-])c1ccc(OCCCOc2ccc([N+](=O)[O-])cc2)cc1 has a reported normalized growth of 0.99

response.value for NC(=O)c1ncn([C@@H]2O[C@H](CO)[C@@H](O)[C@H]2O)n1 (field: normalized growth) = 1

Given item O=[N+]([O-])c1ccc(Oc2cccc3cccnc23)cc1 , the value recorded as its normalized growth is 1

###

METHOD DESCRIPTION: chemical genetic growth profiling, strain panel (AID 1159580);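 also: tested at 20 µM; growth read once vehicle control cultures reached saturation at 30 °C; 1 = growth at the plate median or of vehicle wells; lower values mean less growth of the strain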
CONDITIONS USED: S. cerevisiae deletion strains, growth OD, locus YNL209W, strain ssb2, stronger effect = lower value
About 2,000 (36%) of roughly 5,500 compounds were called active. Not shown: some 18% with an inconclusive outcome. The list shows a part of the results.
This listing pairs compounds with measured normalized growth.
Give a plain numeric answer without units written out.

- COMPOUND: "CC1(C)C(=O)C=C[C@@]2(C)C1CC(=O)[C@]1(C)C2CC[C@@]2(C)[C@H](c3ccoc3)OC(=O)[C@H]3O[C@]321 (some centres undefined)"
  normalized growth: 0.989
- COMPOUND: "C[C@@H]1CC[C@@]2(NC1)O[C@H]1C[C@H]3C4CC=C5C[C@@H](O)CC[C@]5(C)C4CC[C@]3(C)C1[C@@H]2C (some centres undefined)"
  normalized growth: 0.19
- COMPOUND: "COc1cc(OC)c2ccc(=O)oc2c1"
  normalized growth: 0.98
- COMPOUND: "CC1(C)C(=O)C=C[C@@]2(C)C1C=C[C@]1(C)C2CC[C@@]2(C)[C@H](c3ccoc3)OC(=O)C3OC321 (some centres undefined)"
  normalized growth: 0.984
- COMPOUND: "CC(=O)OC(C)C[N+](C)(C)C (centres undefined)"
  normalized growth: 1

Record O=C(Cc1cccs1)NC1C(=O)N2C(C(=O)[O-])=C(C[n+]3ccccc3)CSC12 (centres undefined) , field normalized growth: 0.984

Measured normalized growth, OCC(O)C(O)C(O)C(O)C(O)CO (centres undefined) : 1

// recorded normalized growth for CC(C1OC(C)(C)C(O)C1O)[C@@H]1CC[C@]2(C)C3=CCC4C(C)(C)C(=O)CC[C@]4(C)C3CC[C@@]12C (some centres undefined) : 0.995

response.value for CC1(C)C2CC(=O)[C@]3(C)C(CC[C@@]4(C)[C@H](c5ccoc5)OC(=O)C5OC543)[C@@]2(C)[C@@H](O)C[C@H]1O (some centres undefined) (field: normalized growth) = 0.997

Note to self: normalized growth recorded for CC1(C)C2CC(=O)[C@]3(C)C(CC[C@@]4(C)[C@H](c5ccoc5)OC(=O)[C@H]5O[C@]543)[C@@]2(C)C(=O)C[C@H]1O (some centres undefined) was 0.997

GET /value?item= COc1cc(O)c2c(=O)c(O)c(-c3ccc(O)c(O)c3)oc2c1 &field=normalized growth returns 0.452

According to the records, this compound C[C@]12C=CC(=O)C=C1CCC1C2[C@@H](O)C[C@@]2(C)C1CC[C@]2(O)C(=O)COP(=O)(O)O (some centres undefined) displays normalized growth of 1

Lab note: measured normalized growth of CC1CC[C@]2(NC1)O[C@H]1CC3C4CC[C@H]5C[C@@H](O)CC[C@]5(C)C4CC[C@]3(C)[C@H]1[C@@H]2C (some centres undefined) was 0.383

###

METHOD DESCRIPTION: chemical genetic growth profiling, strain panel (AID 1159580);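 also: tested at 20 µM; growth read once vehicle control cultures reached saturation at 30 °C; 1 = growth at the plate median or of vehicle wells; lower values mean less growth of the strain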
CONDITIONS USED: S. cerevisiae deletion strains, growth OD, locus YCL016C, strain dcc1
Screen size: about 5,500 compounds; about 2,000 (36%) were called active. Roughly 18% stayed inconclusive and do not appear here. Rule as the data show it: active = normalized growth mostly below about 0.91 (no sharp cut-off); inconclusive = no clear call, values can overlap the other calls; inactive = mostly above about 0.92. The list shows a part of the results.
Reply using exactly one outcome from Yes (active), No (inactive)

- COMPOUND: "CC(C1OC(C)(C)C(O)C1O)[C@@H]1CC[C@]2(C)C3=CCC4C(C)(C)C(=O)CC[C@]4(C)C3CC[C@@]12C (stereo partly drawn)"
  CLASS: "No"
- COMPOUND: "C[C@@H]1CC[C@@]2(OC1)O[C@H]1CC3C4CC[C@H]5C[C@@H](O)CC[C@]5(C)C4CC[C@]3(C)[C@H]1[C@@H]2C (stereo partly drawn)"
  CLASS: "No"
- COMPOUND: "COc1cccc2c(C)cc(=O)[nH]c12"
  CLASS: "No"
- COMPOUND: "CCC(c1ccc(O)cc1)C(CC)c1ccc(O)cc1 (stereo not drawn)"
  CLASS: "No"
- COMPOUND: "CC(CC(O)C1OC1(C)C)[C@@H]1CCC2(C)C3=CCC4C(C)(C)C(=O)CCC4(C)C3CC[C@@]12C (stereo partly drawn)"
  CLASS: "No"
- COMPOUND: "C[C@]12CCC3c4ccc(OS(=O)(=O)O)cc4CCC3C1CC[C@H]2O (stereo partly drawn)"
  CLASS: "No"
- COMPOUND: "N#Cc1nn(-c2c(Cl)cc(C(F)(F)F)cc2Cl)c(N)c1S(=O)C(F)(F)F (stereo not drawn)"
  CLASS: "No"
- COMPOUND: "COc1ccc(Cl)cc1C(=O)NCCc1ccc(S(=O)(=O)NC(=O)NC2CCCCC2)cc1"
  CLASS: "No"
- COMPOUND: "CC1CCC2(OC1)OC1CC3C4CC[C@H]5C[C@@H](O)CC[C@]5(C)C4CC(=O)[C@]3(C)C1C2C (stereo partly drawn)"
  CLASS: "No"
- COMPOUND: "O=C(O)C1=C[C@@H](O)[C@@H](O)[C@H](O)C1"
  CLASS: "No"

Problem: Identify the outcome logged in this assay for the compound shown: Cc1[nH]ccc2c1[nH]c1cc(=O)ccc12
Result: No

Problem: Which outcome was entered for the compound CC1CC[C@@]2(OC1)O[C@H]1CC3C4CC[C@@H]5C[C@@H](O)CC[C@]5(C)C4CC[C@]3(C)[C@H]1[C@@H]2C (stereo partly drawn) in this test?
Result: No

Problem: Recorded test call requested for COC1=CC(=O)C(O)=C/C1=C\C=C\c1ccccc1
Result: Yes
